Entries and their ED50
# Tested on: effet hypertenseur de la noradrénaline
# experimentDescription: Urethral specificity of alpha-blocking activity in vivo in the rabbit: inhibition of noradrenaline-induced rise of arterial and urethral pressure
# Design: species or system lapin
# measurementSetup: Oryctolagus cuniculus, intravenous administration, arterial pressure, read-out: Doses inhibant de 50 p.cent (DI50) l'effet hypertenseur de la noradrénaline au niveau artériel DI50 (a)
# Source text: 4. Spécificité urétrale de l'activité alpha bloquante déterminée in vivo chez le lapin : a) - Principe de la mesure . La noradérnaline (I.V.) provoque des augmentations dépendantes des doses de la pression artérielle et de la pression urétrale. Les substances adrénolytiques alpha antagonisent ces augmentations de pression. . […]

| compound | systemName | ED50 |
| --- | --- | --- |
| CC(=O)Oc1cc(C(C)C)c(OCCN(C)C)cc1C [Thymoxamine, chlorhydrate de thymoxamine, reference compound] | effet hypertenseur de la noradrénaline | 2.9 mg/kg |
| Cc1cc(OCCCN2CCCCC2)c(C(C)C)cc1O | effet hypertenseur de la noradrénaline | > 3 mg/kg |
| Cc1ccc(C(C)C)c(OCCCN2CCCCC2)c1 | effet hypertenseur de la noradrénaline | > 3 mg/kg |
| CC(=O)Oc1cc(C(C)C)c(OCCCN2CCCCC2)cc1C | effet hypertenseur de la noradrénaline | > 3 mg/kg |

###

Entries and their mortality
# experimentDescription: Acute toxicity test in the mouse (oral)
# measurementSetup: in vivo, 1000 mg/kg, read-out: Mortalité en %
# Description: 1. Tests de toxicité aiguë chez la souris Les résultats sont rapportés dans le tableau 1.

| compound | mortality, % |
| --- | --- |
| Cc1ccc(C(C)C)c(OCCCN2CCCCC2)c1 | 40 |
| CC(=O)Oc1cc(C(C)C)c(OCCN(C)C)cc1C [Thymoxamine, chlorhydrate de thymoxamine, reference compound] | 100 |
| CC(=O)Oc1cc(C(C)C)c(OCCCN2CCCCC2)cc1C | 100 |
| CC(=O)c1cc(C(C)C)c(OCCCN2CCCCC2)cc1C | 100 |
| Cc1cc(OCCCN2CCCCC2)c(C(C)C)cc1O | 100 |

###

Entries and their mortality
# experimentDescription: Acute toxicity test in the mouse (oral)
# measurementSetup: in vivo, 100 mg/kg, read-out: Mortalité en %
measuredParameter: mortality (%)

| compound | resultNumber |
| --- | --- |
| Cc1ccc(C(C)C)c(OCCCN2CCCCC2)c1 [B 1020] | 0 |
| CC(=O)c1cc(C(C)C)c(OCCCN2CCCCC2)cc1C [B 1021] | 20 |
| CC(=O)Oc1cc(C(C)C)c(OCCCN2CCCCC2)cc1C [B 1059] | 0 |
| CC(=O)Oc1cc(C(C)C)c(OCCN(C)C)cc1C [Thymoxamine, chlorhydrate de thymoxamine, reference compound] | 0 |
| Cc1cc(OCCCN2CCCCC2)c(C(C)C)cc1O [B 1037] | 0 |

###

# Tested on: canal déférent isolé de rat
# experimentDescription: α-adrenolytic action in vitro: antagonism of noradrenaline-induced contractions of isolated rat vas deferens (pA2)
# Format: cell-based
# measurementSetup: pA2 against noradrenaline, read-out: Action α-bloquante vis-à-vis de la noradrénaline PA2 sur canal déférent isolé (converted)
Entries and their Kb

| compound | systemName | Kb (nM) |
| --- | --- | --- |
| Cc1cc(OCCCN2CCCCC2)c(C(C)C)cc1O [B 1037] | canal déférent isolé de rat | 151 |
| CC(=O)c1cc(C(C)C)c(OCCCN2CCCCC2)cc1C [B 1021] | canal déférent isolé de rat | 1740 |
| CC(=O)Oc1cc(C(C)C)c(OCCN(C)C)cc1C [Thymoxamine, chlorhydrate de thymoxamine, reference compound] | canal déférent isolé de rat | 56.2 |
| Cc1ccc(C(C)C)c(OCCCN2CCCCC2)c1 [B 1020] | canal déférent isolé de rat | 302 |
| CC(=O)Oc1cc(C(C)C)c(OCCCN2CCCCC2)cc1C [B 1059] | canal déférent isolé de rat | 126 |
